System: CO-04-0700
Test details: PDX-derived cell culture cytotoxicity (CellTiter-Glo)
Type: cell-based
Conditions: 120 h; colon PDX CO-04-0700; absolute IC50; 5 days
Recorded measurements of pIC50, one per entry
Note on units: pIC50 is unitless, being -log10 of a concentration expressed in mol/L.

O=c1cc(-c2ccc(CCCC[P+](c3ccccc3)(c3ccccc3)c3ccccc3)cc2)oc2c3c(ccc12)OCO3.[Br-] [SND123] | 5.59
CCNC(=O)Oc1ccc2c(=O)cc(-c3ccc(CCCC[P+](c4ccccc4)(c4ccccc4)c4ccccc4)cc3)oc2c1O.[Br-] [SND126A] | 5.64

Note to self: pIC50 recorded for CCNC(=O)Oc1ccc2c(=O)cc(-c3ccc(CCCC[P+](c4ccccc4)(c4ccccc4)c4ccccc4)cc3)oc2c1OC(=O)NCC.[Br-] [SND124] was 5.64

Note to self: pIC50 recorded for COc1c(O)ccc2c(=O)cc(-c3ccc(CCCC[P+](c4ccccc4)(c4ccccc4)c4ccccc4)cc3)oc12.[Br-] [SND140] was 4.89

====

Recorded measurements of IC50, one per entry
Test system: OVCAR-3
Test details: Cell viability assay (CellTiter-Blue/CellTiter-Glow)
Assay type: cell-based
Conditions: Homo sapiens; ovarian carcinoma cell line OVCAR-3; absolute IC50; 72 h
Report the value in µM with no unit label.

CCNC(=O)Oc1ccc2c(=O)cc(-c3ccc(CCCC[P+](c4ccccc4)(c4ccccc4)c4ccccc4)cc3)oc2c1O.[Br-] [SND126A] | 6.54
O=c1cc(-c2ccc(CCCC[P+](c3ccccc3)(c3ccccc3)c3ccccc3)cc2)oc2c(O)c(O)ccc12 | 7.3
O=c1cc(-c2ccc(CCCC[P+](c3ccccc3)(c3ccccc3)c3ccccc3)cc2)oc2c3c(ccc12)OCO3.[Br-] | 2.36

Tested on OVCAR-3, the item "COc1c(O)ccc2c(=O)cc(-c3ccc(CCCC[P+](c4ccccc4)(c4ccccc4)c4ccccc4)cc3)oc12.[Br-]" showed IC50 equal to 8.87

Tested on OVCAR-3, the item "CC(C)NC(=O)Oc1ccc2c(=O)cc(-c3ccc(CCCC[P+](c4ccccc4)(c4ccccc4)c4ccccc4)cc3)oc2c1O" showed IC50 equal to 5.7

====

Test system: colon PDX
Test details: Activity against colon PDX
Type: cell-based
Conditions: growth of colon PDX; Table 8
pIC50: −log10 of the molar value.
Observed property: pIC50

Observe how each entry below is paired with its result.
CCNC(=O)Oc1ccc2c(=O)cc(-c3ccc(CCCC[P+](c4ccccc4)(c4ccccc4)c4ccccc4)cc3)oc2c1OC(=O)NCC.[Br-] [SND124] | > 4.70
CCNC(=O)Oc1ccc2c(=O)cc(-c3ccc(CCCC[P+](c4ccccc4)(c4ccccc4)c4ccccc4)cc3)oc2c1O.[Br-] [SND126A] | > 4.70
O=c1cc(-c2ccc(CCCC[P+](c3ccccc3)(c3ccccc3)c3ccccc3)cc2)oc2c3c(ccc12)OCO3.[Br-] [SND123] | > 4.70

Note to self: pIC50 recorded for COc1c(O)ccc2c(=O)cc(-c3ccc(CCCC[P+](c4ccccc4)(c4ccccc4)c4ccccc4)cc3)oc12.[Br-] [SND140] was > 4.70

====

Test system: CHP-134
Test details: Cell viability assay (CellTiter-Blue/CellTiter-Glow)
Assay type: cell-based
Conditions: Homo sapiens; brain carcinoma cell line CHP-134; absolute IC50; 72 h
Observed property: pIC50
Note on units: pIC50 is unitless, being -log10 of a concentration expressed in mol/L.

Note to self: pIC50 recorded for "O=c1cc(-c2ccc(CCCC[P+](c3ccccc3)(c3ccccc3)c3ccccc3)cc2)oc2c3c(ccc12)OCO3.[Br-]" was 5.74

====

Recorded measurements of pIC50, one per entry
Tested on: PC-07-0059
Test details: PDX-derived cell culture cytotoxicity (CellTiter-Glo)
Assay type: cell-based
Conditions: 120 h; pancreatic PDX PC-07-0059; absolute IC50; 5 days
Note on units: pIC50 is unitless, being -log10 of a concentration expressed in mol/L.

COc1c(O)ccc2c(=O)cc(-c3ccc(CCCC[P+](c4ccccc4)(c4ccccc4)c4ccccc4)cc3)oc12.[Br-] [SND140] | 4.69
CCNC(=O)Oc1ccc2c(=O)cc(-c3ccc(CCCC[P+](c4ccccc4)(c4ccccc4)c4ccccc4)cc3)oc2c1O.[Br-] [SND126A] | 5.31
CCNC(=O)Oc1ccc2c(=O)cc(-c3ccc(CCCC[P+](c4ccccc4)(c4ccccc4)c4ccccc4)cc3)oc2c1OC(=O)NCC.[Br-] [SND124] | 5.38

We now examine a further molecule.
Tested on PC-07-0059, the item O=c1cc(-c2ccc(CCCC[P+](c3ccccc3)(c3ccccc3)c3ccccc3)cc2)oc2c3c(ccc12)OCO3.[Br-] [SND123] showed pIC50 equal to 5.57

====

Test system: HT-29
Test details: Cell viability assay (CellTiter-Blue/CellTiter-Glow)
Type: cell-based
Conditions: Homo sapiens; colon carcinoma cell line HT-29; absolute IC50; 72 h
Protocol: Antitumor activity of the compounds and doxorubicin as a positive control was assessed by using the CellTiter-Blue Cell Viability Assay (Promega, #G8082) or CellTiter-Glow® Luminescent Cell Viability assay (Promega #G7572) according to the manufacturer's instructions. The compounds were tested at 5 or 6 concentrations in half-log increments (highest concentration 30 μM or 100 μM) in duplicate or triplicate well conditions. […]
Observed property: IC50 (µM)
Report the value in µM with no unit label.

O=c1cc(-c2ccc(CCCC[P+](c3ccccc3)(c3ccccc3)c3ccccc3)cc2)oc2c(O)c(O)ccc12 | 10.3
COc1c(O)ccc2c(=O)cc(-c3ccc(CCCC[P+](c4ccccc4)(c4ccccc4)c4ccccc4)cc3)oc12.[Br-] | 14.2
CC(C)NC(=O)Oc1ccc2c(=O)cc(-c3ccc(CCCC[P+](c4ccccc4)(c4ccccc4)c4ccccc4)cc3)oc2c1O | 6.4
CCNC(=O)Oc1ccc2c(=O)cc(-c3ccc(CCCC[P+](c4ccccc4)(c4ccccc4)c4ccccc4)cc3)oc2c1OC(=O)NCC.[Br-] | 2.96

Note to self: IC50 recorded for "O=c1cc(-c2ccc(CCCC[P+](c3ccccc3)(c3ccccc3)c3ccccc3)cc2)oc2c3c(ccc12)OCO3.[Br-]" was 9.3

====

System: bile duct PDX
Test details: Activity against bile duct PDX
Format: cell-based
Conditions: bile duct PDX growth; summary of Table 3
pIC50: −log10 of the molar value.
Observed property: pIC50

O=c1cc(-c2ccc(CCCC[P+](c3ccccc3)(c3ccccc3)c3ccccc3)cc2)oc2c3c(ccc12)OCO3.[Br-] | > 4.70
COc1c(O)ccc2c(=O)cc(-c3ccc(CCCC[P+](c4ccccc4)(c4ccccc4)c4ccccc4)cc3)oc12.[Br-] | > 4.70

Note to self: pIC50 recorded for "CCNC(=O)Oc1ccc2c(=O)cc(-c3ccc(CCCC[P+](c4ccccc4)(c4ccccc4)c4ccccc4)cc3)oc2c1OC(=O)NCC.[Br-]" was > 4.70

Note to self: pIC50 recorded for "CC(C)NC(=O)Oc1ccc2c(=O)cc(-c3ccc(CCCC[P+](c4ccccc4)(c4ccccc4)c4ccccc4)cc3)oc2c1O" was > 4.70

Note to self: pIC50 recorded for CCNC(=O)Oc1ccc2c(=O)cc(-c3ccc(CCCC[P+](c4ccccc4)(c4ccccc4)c4ccccc4)cc3)oc2c1O.[Br-] [SND126A] was > 4.70

====

Tested on: SH-SY-5Y
Test details: Cell viability assay (CellTiter-Blue/CellTiter-Glow)
Format: cell-based
Conditions: Homo sapiens, SH-SY5Y; brain carcinoma cell line SH-SY-5Y; absolute IC50; 72 h
Observed property: pIC50
Note on units: pIC50 is unitless, being -log10 of a concentration expressed in mol/L.

Note to self: pIC50 recorded for "O=c1cc(-c2ccc(CCCC[P+](c3ccccc3)(c3ccccc3)c3ccccc3)cc2)oc2c3c(ccc12)OCO3.[Br-]" was 5.31

====

Test system: A549
Test details: Cell viability assay (CellTiter-Blue/CellTiter-Glow)
Assay type: cell-based
Conditions: Homo sapiens; lung carcinoma cell line A549; absolute IC50; 72 h
Observed property: IC50 (µM)
Report the value in µM with no unit label.

CCNC(=O)Oc1ccc2c(=O)cc(-c3ccc(CCCC[P+](c4ccccc4)(c4ccccc4)c4ccccc4)cc3)oc2c1OC(=O)NCC.[Br-] | 11.2
O=c1cc(-c2ccc(CCCC[P+](c3ccccc3)(c3ccccc3)c3ccccc3)cc2)oc2c(O)c(O)ccc12 | 12.5
O=c1cc(-c2ccc(CCCC[P+](c3ccccc3)(c3ccccc3)c3ccccc3)cc2)oc2c3c(ccc12)OCO3.[Br-] | 8.08

We now examine a further molecule.
Note to self: IC50 recorded for "CC(C)NC(=O)Oc1ccc2c(=O)cc(-c3ccc(CCCC[P+](c4ccccc4)(c4ccccc4)c4ccccc4)cc3)oc2c1O" was 5.3

====

Recorded measurements of pIC50, one per entry
Tested on: PC-3
Test details: Cell viability assay (CellTiter-Blue/CellTiter-Glow)
Type: cell-based
Conditions: Homo sapiens; prostate carcinoma cell line PC-3; absolute IC50; 72 h
Note on units: pIC50 is unitless, being -log10 of a concentration expressed in mol/L.

Observe how each entry below is paired with its result.
CCNC(=O)Oc1ccc2c(=O)cc(-c3ccc(CCCC[P+](c4ccccc4)(c4ccccc4)c4ccccc4)cc3)oc2c1OC(=O)NCC.[Br-] | 5.20
CCNC(=O)Oc1ccc2c(=O)cc(-c3ccc(CCCC[P+](c4ccccc4)(c4ccccc4)c4ccccc4)cc3)oc2c1O.[Br-] [SND126A] | 5.54
CC(C)NC(=O)Oc1ccc2c(=O)cc(-c3ccc(CCCC[P+](c4ccccc4)(c4ccccc4)c4ccccc4)cc3)oc2c1O | 5.26
O=c1cc(-c2ccc(CCCC[P+](c3ccccc3)(c3ccccc3)c3ccccc3)cc2)oc2c(O)c(O)ccc12 | 5.28
O=c1cc(-c2ccc(CCC[P+](c3ccccc3)(c3ccccc3)c3ccccc3)cc2)oc2c(O)c(O)ccc12 | 5.14
COc1c(O)ccc2c(=O)cc(-c3ccc(CCCC[P+](c4ccccc4)(c4ccccc4)c4ccccc4)cc3)oc12.[Br-] | 5.08

We now examine a further compound.
Note to self: pIC50 recorded for "O=c1cc(-c2ccc(CCCC[P+](c3ccccc3)(c3ccccc3)c3ccccc3)cc2)oc2c3c(ccc12)OCO3.[Br-]" was 5.72
